Sourced from ChEMBL document CHEMBL4354824

method: Lipophilicity, log Pof the compound
Type: physicochemical
assay conditions: octanol/water
quantity kind: logP
Number only, no unit.

Name the reported logP value associated with the molecule `O=C1N(c2cccnc2C(F)(F)F)CC2(CCN(CCc3ccccc3F)CC2)OC12CC2`
3.41

* * *

experimental system: Mu-type opioid receptor (Homo sapiens)
Criterion: Ki strictly under 0.09 µM. Met: MET. Not met: NOT MET.

Hello, I'm reviewing records and need to know if Ki of CC1OC2(CCN(CCc3ccccc3)CC2)CN(c2ncccc2F)C1=O (stereo unspecified) is below 0.09 µM. Could you check?
NOT MET

Find out if reported Ki for CN(C)C(=O)CC1OC2(CCN(CCc3ccccc3)CC2)CN(c2ccccc2)C1=O (stereo unspecified) is less than 0.09 µM
NOT MET

Determine if CC1OC2(CCN(CCc3ccccc3)CC2)CN(c2ccc(O)cc2)C1=O (stereo unspecified) shows Ki strictly lower than 0.09 µM.
NOT MET

I wonder whether `C[C@H]1OC2(CCN(CCc3ccccc3F)CC2)CN(c2ncccc2C(F)(F)F)C1=O` has Ki below 0.09 µM. Can you tell?
MET

Quick check: does CC1OC2(CCN(CCc3ccccc3)CC2)CN(c2ccccc2Cl)C1=O (stereo unspecified) have Ki under 0.09 µM?
MET

Consider the compound O=C1C(COCc2ccccc2)OC2(CCN(CCc3ccccc3)CC2)CN1c1ccccc1 (stereo unspecified) . Is its Ki strictly less than 0.09 µM?
MET

Ki strictly < 0.09 µM for this compound? CC1OC2(CCN(CCc3ccccc3)CC2)CN(c2cncc(C(F)(F)F)c2)C1=O (stereo unspecified)
NOT MET

Problem: For the compound CC1OC2(CCN(CCc3ccc(F)cc3)CC2)CN(c2ccccc2)C1=O (stereo unspecified) , is Ki under 0.09 µM?
MET

Quick check: Ki of CC1OC2(CCN(CCc3ccccc3)CC2)CN(c2cccnc2)C1=O (stereo unspecified) under 0.09 µM?
NOT MET

Check if Ki falls below 0.09 µM for CC1OC2(CCN(CCc3ccccc3)CC2)CN(c2cccc(O)c2)C1=O (stereo unspecified) .
NOT MET

Regarding CC1OC2(CCN(CCc3ccccc3)CC2)CN(c2cncc(F)c2)C1=O (stereo unspecified) , kindly confirm whether its Ki is beneath 0.09 µM.
NOT MET

Check if Ki falls below 0.09 µM for CC(C)C1OC2(CCN(CCc3ccccc3)CC2)CN(c2ccccc2)C1=O (stereo unspecified) .
MET

Say whether its Ki is strictly beneath 0.09 µM. Entry: CC1OC2(CCN(CCc3ccccc3)CC2)CN(c2ccccc2F)C1=O (stereo unspecified)
MET

* * *

experimental system: Mu-type opioid receptor (Homo sapiens)
method: Agonist activity at human MOR expressed in CHOK1 cells assessed as […] of cAMP accumulation incubated for 45 mins by HTRF assay relative to DAMGO
Format: functional, cell-based
Emax by entry:
All answers are understood in %, so give the number only.

Worked examples follow.
CC1OC2(CCN(CCc3ccccc3)CC2)CN(c2ccccn2)C1=O (stereo not drawn): 50
CC1OC2(CCN(CCc3ccccc3)CC2)CN(c2cncc(C(F)(F)F)c2)C1=O (stereo not drawn): 92
CC1OC2(CCN(CCc3cccc(C#N)c3)CC2)CN(c2ccccc2)C1=O (stereo not drawn): 88

Look at this compound and give its reported Emax. O=C1C(COCc2ccccc2)OC2(CCN(CCc3ccccc3)CC2)CN1c1ccccc1 (stereo not drawn)
96

Find the recorded Emax belonging to `CC1(C)OC2(CCN(CCc3ccccc3)CC2)CN(c2ccccc2)C1=O` and report it.
98

Which value of Emax has been reported for `C[C@H]1OC2(CCN(CCc3ccccc3F)CC2)CN(c2ncccc2C(F)(F)F)C1=O` in the records?
98

Endpoint output: Emax of CC1OC2(CCN(CCc3ccccc3)CC2)CN(c2ncccc2C(F)(F)F)C1=O (stereo not drawn) . Value?
100

Using the record for CC1OC2(CCN(CCc3cccnc3)CC2)CN(c2ccccc2)C1=O (stereo not drawn) , report its Emax.
85

Reported Emax, compound `CC(=O)Nc1cccc(CCN2CCC3(CC2)CN(c2ccccc2)C(=O)[C@@H](C)O3)c1` : ____
95

Can you look up the measured Emax of `C[C@H]1OC2(CCN(CCc3ccccc3F)CC2)CN(c2cnccc2C(F)(F)F)C1=O` for me?
100

Request the reported Emax associated with `C[C@@H]1OC2(CCN(CCc3ccccc3)CC2)CN(c2ccccc2)C1=O`
83

Any idea what its Emax is? The compound is CC1OC2(CCN(CCc3ccccc3)CC2)CN(c2cncc(F)c2)C1=O (stereo not drawn)
87

Recorded Emax of CC1OC2(CCN(CCc3ccc(F)cc3)CC2)CN(c2ccccc2)C1=O (stereo not drawn) , please.
95

For COc1cccc(N2CC3(CCN(CCc4ccccc4)CC3)OC(C)C2=O)c1 (stereo not drawn) , what is its reported Emax?
88

If you can, please state the reported Emax value of CC1OC2(CCN(CCc3ccccn3)CC2)CN(c2ccccc2)C1=O (stereo not drawn) .
85

* * *

Quick record: pKi, Mu-type opioid receptor (Homo sapiens, UniProt P35372).
Notebook: values listed as pKi are -log10 of the concentration (mol/L).

CC1(C)OC2(CCN(CCc3ccccc3)CC2)CN(c2ccccc2)C1=O: 8.52
COc1ccccc1N1CC2(CCN(CCc3ccccc3)CC2)OC(C)C1=O (stereo not given): 7.24
CC1OC2(CCN(CCc3ccccc3)CC2)CN(c2ccccc2O)C1=O (stereo not given): 6.27

What value of pKi has been recorded for this entry: CC1OC2(CCN(CCc3ccccc3)CC2)CN(c2cnccc2C(F)(F)F)C1=O (stereo not given)
7.55

Please look up its pKi: CC1OC2(CCN(CCc3ccccc3)CC2)CN(c2ncccc2C(F)(F)F)C1=O (stereo not given)
6.58

Would you kindly share the measured pKi for CC(=O)Nc1ccccc1CCN1CCC2(CC1)CN(c1ccccc1)C(=O)C(C)O2 (stereo not given) ?
6.72

What measured pKi goes with CC1OC2(CCN(CCc3cccnc3)CC2)CN(c2ccccc2)C1=O (stereo not given) ?
6.93

Data request, read-out pKi, for `O=C1N(c2ccccc2)CC2(CCN(CCc3ccccc3)CC2)OC12CC2`
7.82

Could you tell me which pKi is on file for `C[C@H]1OC2(CCN(CCc3ccccc3F)CC2)CN(c2cnccc2C(F)(F)F)C1=O` ?
7.96

* * *

experimental system: Alpha-1A adrenergic receptor (Homo sapiens)
Sequence (P35348 whole entry): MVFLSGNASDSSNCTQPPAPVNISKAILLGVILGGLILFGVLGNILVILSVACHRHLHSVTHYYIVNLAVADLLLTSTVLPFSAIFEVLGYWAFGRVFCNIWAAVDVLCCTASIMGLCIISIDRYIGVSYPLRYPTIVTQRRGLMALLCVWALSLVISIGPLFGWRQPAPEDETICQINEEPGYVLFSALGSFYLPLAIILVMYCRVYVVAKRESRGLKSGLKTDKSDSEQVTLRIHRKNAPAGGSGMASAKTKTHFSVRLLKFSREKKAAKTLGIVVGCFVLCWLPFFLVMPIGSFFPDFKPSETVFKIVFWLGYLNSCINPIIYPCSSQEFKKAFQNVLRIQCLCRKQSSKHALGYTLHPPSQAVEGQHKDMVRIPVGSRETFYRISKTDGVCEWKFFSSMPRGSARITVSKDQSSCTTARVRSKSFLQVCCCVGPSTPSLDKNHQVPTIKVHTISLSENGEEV
quantity kind: Ki (µM)
Quick reminder: number only, in µM, skip the unit.

For Alpha-1A adrenergic receptor (Homo sapiens), provide Ki of `O=C1N(c2cccnc2C(F)(F)F)CC2(CCN(CCc3ccccc3F)CC2)OC12CC2` please.
0.47

* * *

System: Mu-type opioid receptor (Homo sapiens, UniProt P35372) | Read-out: Ki
Sequence (P35372 whole entry): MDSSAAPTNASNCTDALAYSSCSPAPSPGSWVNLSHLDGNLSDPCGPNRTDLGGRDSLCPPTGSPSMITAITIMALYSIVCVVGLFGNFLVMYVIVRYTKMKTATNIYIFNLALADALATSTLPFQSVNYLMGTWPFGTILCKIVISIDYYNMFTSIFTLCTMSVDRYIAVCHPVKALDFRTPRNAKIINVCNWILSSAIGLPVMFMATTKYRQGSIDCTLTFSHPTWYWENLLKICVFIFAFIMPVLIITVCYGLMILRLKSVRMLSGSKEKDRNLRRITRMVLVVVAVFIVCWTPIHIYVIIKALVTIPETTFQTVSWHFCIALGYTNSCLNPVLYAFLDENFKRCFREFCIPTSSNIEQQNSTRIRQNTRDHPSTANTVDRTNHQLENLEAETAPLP
Numeric answer only, unit nM assumed.

// solved cases for Ki follow
CC1OC2(CCN(CCc3ccncc3)CC2)CN(c2ccccc2)C1=O (stereo not given): 516
CC1OC2(CCN(CCc3ccccn3)CC2)CN(c2cnccc2C(F)(F)F)C1=O (stereo not given): 127
O=C1C(CO)OC2(CCN(CCc3ccccc3)CC2)CN1c1ccccc1 (stereo not given): 46

Consider the additional compound presented here.
Test system Mu-type opioid receptor (Homo sapiens, UniProt P35372); read-out Ki; what value for CC(=O)Nc1cccc(CCN2CCC3(CC2)CN(c2ccccc2)C(=O)C(C)O3)c1 (racemic) ?
144

* * *

experimental system: Sigma non-opioid intracellular receptor 1 (Homo sapiens)
Sequence (Q99720 whole entry): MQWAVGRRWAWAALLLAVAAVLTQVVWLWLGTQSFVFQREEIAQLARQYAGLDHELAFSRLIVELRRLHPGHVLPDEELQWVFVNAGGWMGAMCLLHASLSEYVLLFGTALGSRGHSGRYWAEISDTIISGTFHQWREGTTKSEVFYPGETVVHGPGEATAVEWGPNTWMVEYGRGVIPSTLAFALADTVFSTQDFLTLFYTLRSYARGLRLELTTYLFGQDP
method: Displacement of [3H]-(+)-pentazocine from human sigma-1 receptor expressed in HEK293 membranes incubated for 120 mins by liquid scintillation counting method
Known Ki of a selection of compounds
# output: bare number, implied unit nM

CC(=O)Nc1ccccc1CCN1CCC2(CC1)CN(c1ccccc1)C(=O)C(C)O2 (stereo unspecified): 656
CC1OC2(CCN(CCc3ccc(F)cc3)CC2)CN(c2ccccc2)C1=O (stereo unspecified): 11
C[C@H]1OC2(CCN(CCc3ccccc3F)CC2)CN(c2cnccc2C(F)(F)F)C1=O: 61

Recorded Ki of CC1OC2(CCN(CCc3cccnc3)CC2)CN(c2ccccc2)C1=O (stereo unspecified) , please.
91

Report Ki for CC1OC2(CCN(CCc3ccccc3)CC2)CN(c2cnccc2C(F)(F)F)C1=O (stereo unspecified) please.
63

Entry under review: CC1OC2(CCN(CCc3ccccn3)CC2)CN(c2cnccc2C(F)(F)F)C1=O (stereo unspecified) . Reported Ki?
622
